# measurement-target: T1, RecQ4 (Homo sapiens, UniProt O94761 1-1208)
# T1 sequence: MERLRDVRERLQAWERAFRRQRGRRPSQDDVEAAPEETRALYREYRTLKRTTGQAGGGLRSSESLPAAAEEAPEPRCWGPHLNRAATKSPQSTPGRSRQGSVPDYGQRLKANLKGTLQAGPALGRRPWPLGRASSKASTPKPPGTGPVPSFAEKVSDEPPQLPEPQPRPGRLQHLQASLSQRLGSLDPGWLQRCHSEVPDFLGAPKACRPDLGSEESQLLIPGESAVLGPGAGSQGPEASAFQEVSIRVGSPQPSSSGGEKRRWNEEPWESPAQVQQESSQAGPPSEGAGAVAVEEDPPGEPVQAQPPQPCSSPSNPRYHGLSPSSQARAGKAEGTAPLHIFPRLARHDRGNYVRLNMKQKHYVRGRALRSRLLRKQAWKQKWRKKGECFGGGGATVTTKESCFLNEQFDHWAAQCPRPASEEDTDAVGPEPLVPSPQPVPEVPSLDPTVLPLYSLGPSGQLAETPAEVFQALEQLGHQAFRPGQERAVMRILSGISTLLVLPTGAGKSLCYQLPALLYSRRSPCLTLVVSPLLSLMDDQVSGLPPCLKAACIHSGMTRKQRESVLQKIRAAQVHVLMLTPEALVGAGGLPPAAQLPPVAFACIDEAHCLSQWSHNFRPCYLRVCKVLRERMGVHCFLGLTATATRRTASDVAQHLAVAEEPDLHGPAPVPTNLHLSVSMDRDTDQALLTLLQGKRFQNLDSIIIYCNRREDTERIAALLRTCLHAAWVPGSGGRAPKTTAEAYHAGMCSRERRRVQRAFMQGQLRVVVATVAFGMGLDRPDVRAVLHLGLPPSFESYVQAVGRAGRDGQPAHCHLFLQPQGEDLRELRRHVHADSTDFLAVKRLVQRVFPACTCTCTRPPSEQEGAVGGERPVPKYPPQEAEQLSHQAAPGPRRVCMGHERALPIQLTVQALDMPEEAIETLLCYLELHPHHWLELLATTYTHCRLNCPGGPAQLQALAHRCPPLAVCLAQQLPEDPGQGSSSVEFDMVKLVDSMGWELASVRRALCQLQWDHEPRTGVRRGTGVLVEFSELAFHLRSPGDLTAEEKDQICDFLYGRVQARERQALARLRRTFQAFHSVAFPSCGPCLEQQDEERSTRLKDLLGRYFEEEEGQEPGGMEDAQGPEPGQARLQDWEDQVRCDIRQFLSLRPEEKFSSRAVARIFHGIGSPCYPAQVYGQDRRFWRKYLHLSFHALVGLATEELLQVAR
# assay-protocol: EMSA
property-measured: Kd (nM)
Please reply with the bare figure in nM and do not write the unit itself.

Name the recorded Kd for Holliday junction (HJ) (structured_DNA) DNA 1: GACGCTGCCGAATTCTGGCTTGCTAGGACATCTTTGCCCACGTTGACCC DNA 2: TGGGTCAACGTGGGCAAAGATGTCCTAGCAATGTAATCGTCTATGACGTT DNA 3: CAACGTCATAGACGATTACATTGCTAGGACATGCTGTCTAGAGACTATCGA DNA 4: ATCGATAGTCTCTAGACAGCATGTCCTAGCAAGCCAGAATTCGGCAGCGT . 90.1

Name the recorded Kd for G4 (structured_DNA) DNA: AAAGGGGGAGCTGGGGTAGATGGGAATGTGAGGGCAACAGGTGAGTCAACGTGTTGCCA . 12.3

Name the recorded Kd for 5' tail (dsDNA) DNA 1: ACCGTTGTGCAACTGAGTGGACAACGTGTCACTCACATAGCGTTC DNA 2: GAACGCTATGTGAGTGACAC . 102

Name the recorded Kd for 3' tail (dsDNA) DNA 1: GAACGCTATGTGAGTGACACCAACAGGTGAGTCAACGTGTTGCCA DNA 2: GTGTCACTCACATAGCGTTC . 21.8

Name the recorded Kd for Human Tel Fork (Poly(TTAGGG) Fork) (dsDNA) DNA 1: TTAGGGTTAGGGTTAGGGTTAGGGTGTGTCACTCACATAGCGTTC DNA 2: GAACGCTATGTGAGTGACACTTAGGGTTAGGGTTAGGGTTAGGGT . 39.7

Name the recorded Kd for 25-nt Random Fork (dsDNA) DNA 1: ACCGTTGTGCAACTGAGTGGACAACGTGTCACTCACATAGCGTTC DNA 2: GAACGCTATGTGAGTGACACCAACAGGTGAGTCAACGTGTTGCCA . 108

Name the recorded Kd for Poly(dT) Fork (dsDNA) DNA 1: TTTTTTTTTTTTTTTTTTTTTTTTTGTGTCACTCACATAGCGTTC DNA 2: GAACGCTATGTGAGTGACACTTTTTTTTTTTTTTTTTTTTTTTTT . 50.9

Name the recorded Kd for TTTTTTTTTTTTTTTTTTTTTTTTTTTTTTTTTTTTTTTT (ssDNA) [Poly(dT) 40mer ssDNA] . 2.38

Name the recorded Kd for Yeast Tel Fork (Poly(TG1-3) Fork) (dsDNA) DNA 1: GGTGTGGTGTGGGTGTGGTGTGGGTGTGTCACTCACATAGCGTTC DNA 2: GAACGCTATGTGAGTGACACTGGGTGTGGTGTGGGTGTGGTGTGG . 18.5
